Biological target: CypH (Homo sapiens)
Construct: PPIH (UniProtKB Entry O43447: residues 1–177); His6 with TEV site (2BT vector leader) (N); made in house; host or cells: E. coli BL21(DE3)
Sequence (O43447 whole entry, the tested form may be a part): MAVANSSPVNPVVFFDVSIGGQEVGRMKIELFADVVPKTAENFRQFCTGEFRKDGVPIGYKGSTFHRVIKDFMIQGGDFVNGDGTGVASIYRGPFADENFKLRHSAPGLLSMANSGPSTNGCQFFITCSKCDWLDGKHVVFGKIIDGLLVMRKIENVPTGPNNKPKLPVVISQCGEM
Assay: Chymotrypsin coupled prolyl-isomerase assay
Format: biochemical
Conditions: wild-type CypH; read-out: Wild-Type Cyclophilin Prolyl Isomerase Inhibition IC50 Values, CypH
Quick list: pIC50 per entry.
Scale note: pIC50 = -log10(concentration in M).

{"COMPOUND": "NCCOCCNC(=O)C1CCNC(=O)C=CC(=O)N2CCCC(C2)C(=O)NC(Cc2ccco2)C(=O)NCc2ccccc2CC(=O)N1 (centres unmarked)", "EXPERIMENTAL_SYSTEM": "CypH (Homo sapiens)", "pIC50": 4.00}
{"COMPOUND": "NCCOCCNC(=O)[C@@H]1CCNC(=O)/C=C/C(=O)N2CCC[C@](Cc3ccccc3)(C2)C(=O)N[C@@H](Cc2ccc(-c3ccc(C#CC(=O)O)cc3)cc2)C(=O)NCc2ccccc2CC(=O)N1", "EXPERIMENTAL_SYSTEM": "CypH (Homo sapiens)", "pIC50": 4.30}
{"COMPOUND": "NCCOCCNC(=O)[C@@H]1CCNC(=O)/C=C/C(=O)N2CCC[C@](Cc3ccccc3)(C2)C(=O)N[C@@H](Cc2ccc(-c3ccccc3)cc2)C(=O)NCc2ccccc2CC(=O)N1", "EXPERIMENTAL_SYSTEM": "CypH (Homo sapiens)", "pIC50": 4.00}
{"COMPOUND": "NCCOCCNC(=O)[C@@H]1CCNC(=O)/C=C/C(=O)N2CCC[C@](Cc3ccccc3)(C2)C(=O)N[C@@H](Cc2ccc(-c3ccc(CCC(=O)O)cc3)cc2)C(=O)NCc2ccccc2CC(=O)N1", "EXPERIMENTAL_SYSTEM": "CypH (Homo sapiens)", "pIC50": 4.52}
{"COMPOUND": "C[N+]1=C(C=CC=CC=C2N(CCCCCC(=O)NCCNC(=O)C3CCNC(=O)C=CC(=O)N4CCCC(Cc5ccccc5)(C4)C(=O)NC(Cc4ccc(-c5ccc(CC(C(=O)O)C(=O)O)cc5)cc4)C(=O)NCc4ccccc4CC(=O)N3)c3ccccc3C2(C)C)C(C)(C)c2ccccc21 (centres unmarked) [Compound B52-Cy5]", "EXPERIMENTAL_SYSTEM": "CypH (Homo sapiens)", "pIC50": 5.00}
{"COMPOUND": "NCCOCCNC(=O)[C@@H]1CCNC(=O)/C=C/C(=O)N2CCC[C@](Cc3ccccc3)(C2)C(=O)N[C@@H](Cc2ccc(C(=O)c3ccccc3)cc2)C(=O)NCc2ccccc2CC(=O)N1", "EXPERIMENTAL_SYSTEM": "CypH (Homo sapiens)", "pIC50": 4.70}

Now turn to the next compound.
Consider the compound shown here: NCCOCCNC(=O)C1CCNC(=O)C=CC(=O)N2CCCC(Cc3ccccc3)(C2)C(=O)NC(Cc2ccco2)C(=O)NCc2ccccc2CC(=O)N1 (centres unmarked) What is its recorded pIC50?
5.57
